Test system: S. marcescens
Experiment: Biofilm inhibition assay (inhibition of biofilm formation), crystal violet staining
Assay type: cell-based
Conditions: Serratia marcescens, 24 h
Label rule, in plain words: inhibition at 250 µM of 70% and up is T, under 70% is F.

See these solved cases before continuing.
Challenge: State whether the measured inhibition at 250 µM reaches 70%, counting equality as reaching it, for Cl.N=C(N)NCCCC[C@H](NC(=O)C(=O)c1cc(F)ccc1NC(=O)c1ccc2ccccc2c1)C(=O)O [Compound 53, hydrochloride]
Response given: F

Challenge: Would you say Cl.N=C(N)NCCCNC(=O)C(=O)c1cc(F)ccc1NC(=O)c1ccc2ccccc2c1 [Compound 37, hydrochloride] shows inhibition at 250 µM at minimum 70%?
Response given: T

# ---- query molecule ----
Challenge: Could you verify whether the entry CC(=O)C(CCCCNC(=N)N)NC(=O)C(=O)c1cc(Br)ccc1NC(=O)c1ccc2ccccc2c1.Cl (stereo not drawn) [Compound 56, hydrochloride] shows inhibition at 250 µM of no less than 70%?
Response given: F

* * *

Measured IC50 by item
System: MRC-5 normal human lung fibroblasts
Assay: Toxicity assay, Alamar blue, Example 1
Assay type: cell-based
Settings: Homo sapiens, MRC5, 72 h incubation, read-out: toxicity (IC50) against MRC-5 human fibroblast cells
Report the value in µM with no unit label.

Challenge: Fill in the blank: the reported IC50 of Cl.N=C(N)NCCCNC(=O)C(=O)c1cc(Br)ccc1NC(=O)c1ccc2ccccc2c1 [Compound 35, hydrochloride] is ____.
Response given: 174

Challenge: Which IC50 value belongs to Cl.N=C(N)NCCCNC(=O)C(=O)c1cc(Cl)ccc1NC(=O)c1ccc2ccccc2c1 [Compound 36, hydrochloride] ?
Response given: 224

* * *

System: S. aureus
Assay: Minimal inhibitory concentration (MIC) determination, Example 1
Format: cell-based
Settings: Staphylococcus aureus; MHB, 37° C., 24 h; read-out: Minimum inhibitory concentration (MIC) S. aureus
List of MIC values.
Write it as a number; the unit µg/mL goes unstated.

Challenge: What does the data say about its MIC? Entry: "Cl.N=C(N)NCCCNC(=O)C(=O)c1ccccc1NC(=O)c1ccc2ccccc2c1"
Response given: 23

---
Challenge: May I ask what MIC has been recorded for COC(=O)C(CCCN)NC(=O)C(CCCCN)NC(=O)C(=O)c1ccccc1NC(=O)c1ccc2ccccc2c1.Cl.Cl (stereo not shown) ?
Response given: 130

Challenge: Tell me the measured MIC of "Cl.N=C(N)NCCCNC(=O)C(=O)c1cc(Br)ccc1NC(=O)c1ccc2ccccc2c1" , please.
Response given: 6

Challenge: Look up MIC for this compound: "Cl.N=C(N)NCCCC[C@H](NC(=O)C(=O)c1ccccc1NC(=O)c1ccc2ccccc2c1)C(=O)O"
Response given: 53

Challenge: What does the data say about its MIC? Entry: "Cc1ccc(NC(=O)c2ccc3ccccc3c2)c(C(=O)C(=O)NCCCNC(=N)N)c1.Cl"
Response given: 93

* * *

System: S. aureus
Experiment: Minimal inhibitory concentration (MIC) determination, Example 1
Format: cell-based
Details: Staphylococcus aureus; MHB, 37° C., 24 h; read-out: Minimum inhibitory concentration (MIC) S. aureus
Binary label based on MIC with cut-off 30 µg/mL: below gives 1, not below gives 0.

Solved cases below.
Challenge: Here's an entry: "Cl.N=C(N)NCCCC[C@H](NC(=O)C(=O)c1cc(Br)ccc1NC(=O)c1ccc2ccccc2c1)C(=O)O" . Is its MIC below 30 µg/mL?
Response given: 0

Challenge: Check if MIC falls below 30 µg/mL for "COC(=O)[C@H](CCCNC(=N)N)NC(=O)[C@H](CCCNC(=N)N)NC(=O)C(=O)c1ccccc1NC(=O)c1ccc2ccccc2c1.Cl.Cl" .
Response given: 1

Challenge: Strictly below 30 µg/mL: is that where MIC of "COC(=O)[C@H](CCCNC(=N)N)NC(=O)[C@H](CCCNC(=N)N)NC(=O)C(=O)c1cc(Br)ccc1NC(=O)c1ccc2ccccc2c1.Cl.Cl" sits?
Response given: 1

Now for a further molecule.
Challenge: Would you kindly verify if MIC of "Cl.N=C(N)NCCCC[C@H](NC(=O)C(=O)c1cc(F)ccc1NC(=O)c1ccc2ccccc2c1)C(=O)O" is strictly less than 30 µg/mL?
Response given: 0

* * *

Tested on: E. coli
Please assign NO whenever MIC is at or above 50 µg/mL, and YES whenever it is below.

Solved entries (count: 6):
Challenge: I'd appreciate it if you could check whether "COC(=O)[C@H](CCCNC(=N)N)NC(=O)[C@H](CCCNC(=N)N)NC(=O)C(=O)c1ccccc1NC(=O)c1ccc2ccccc2c1.Cl.Cl" has MIC smaller than 50 µg/mL.
Response given: NO

Challenge: Find out if reported MIC for "Cl.N=C(N)NCCCNC(=O)C(=O)c1ccccc1NC(=O)c1ccc2ccccc2c1" is less than 50 µg/mL
Response given: NO

Challenge: Quick check: MIC of "Cl.N=C(N)NCCCNC(=O)C(=O)c1cc(Cl)ccc1NC(=O)c1ccc2ccccc2c1" under 50 µg/mL?
Response given: NO

Challenge: Please let me know if "Cl.N=C(N)NCCCC[C@H](NC(=O)C(=O)c1cc(Br)ccc1NC(=O)c1ccc2ccccc2c1)C(=O)O" shows MIC below 50 µg/mL.
Response given: NO

Challenge: Please check: MIC for CC(=O)C(CCCCNC(=N)N)NC(=O)C(=O)c1cc(Br)ccc1NC(=O)c1ccc2ccccc2c1.Cl (centres unmarked) , strictly under 50 µg/mL or not?
Response given: YES

Challenge: Given the entry "Cl.N=C(N)NCCCC[C@H](NC(=O)C(=O)c1cc(F)ccc1NC(=O)c1ccc2ccccc2c1)C(=O)O" , would its reported MIC be below 50 µg/mL?
Response given: NO

Now, please, on to the next compound.
Challenge: Dear reviewer, please state whether COC(=O)C(CCCN)NC(=O)C(CCCCN)NC(=O)C(=O)c1ccccc1NC(=O)c1ccc2ccccc2c1.Cl.Cl (centres unmarked) has MIC strictly beneath 50 µg/mL.
Response given: YES

* * *

Measured MIC (E. coli)
Reply numerically in µg/mL, unit not repeated.

Challenge: Endpoint output: MIC of CC(=O)C(CCCCNC(=N)N)NC(=O)C(=O)c1ccccc1NC(=O)c1ccc2ccccc2c1.Cl (stereo not shown) . Value?
Response given: 17

Could you now consider this next compound?
Challenge: If you can, please state the reported MIC value of "Cc1ccc(NC(=O)c2ccc3ccccc3c2)c(C(=O)C(=O)N[C@@H](CCCCNC(=N)N)C(=O)O)c1.Cl" .
Response given: 68

* * *

Tested on: Pseudomonas aeruginosa (PAO1)
Test: Biofilm disruption assay, established biofilms, crystal violet staining
Type: cell-based
Conditions: 250 μM, 24 h treatment
PROPERTY LABEL: disruption of established biofilms of P. aeruginosa
The reply should consist of the numeric value with the unit placed after it.

Please review the following examples before continuing.
Challenge: Param item = "Cc1ccc(NC(=O)c2ccc3ccccc3c2)c(C(=O)C(=O)N[C@@H](CCCCNC(=N)N)C(=O)O)c1.Cl" ; retrieve measured disruption of established biofilms of P. aeruginosa.
Response given: 46%

Challenge: Would you mind telling me what disruption of established biofilms of P. aeruginosa value was observed for "Cl.N=C(N)NCCCC[C@H](NC(=O)C(=O)c1cc(F)ccc1NC(=O)c1ccc2ccccc2c1)C(=O)O" ?
Response given: 42%

Others:
Challenge: Query (molecule): COC(=O)C(CCCN)NC(=O)C(CCCCN)NC(=O)C(=O)c1cc(Br)ccc1NC(=O)c1ccc2ccccc2c1.Cl.Cl (stereo not shown) ; field requested: disruption of established biofilms of P. aeruginosa
Response given: 46%

Challenge: For the molecule shown here, COC(=O)C(CCCN)NC(=O)C(CCCCN)NC(=O)C(=O)c1ccccc1NC(=O)c1ccc2ccccc2c1.Cl.Cl (stereo not shown) , give the reported disruption of established biofilms of P. aeruginosa.
Response given: 55%

* * *

Each entry below lists one item and its recorded inhibition at 250 µM value.
System: S. marcescens
Experiment: Biofilm inhibition assay (inhibition of biofilm formation), crystal violet staining
Assay type: cell-based
Conditions: Serratia marcescens, 24 h
Report the figure in % without appending any unit label.

Challenge: Look at this molecule and give its reported inhibition at 250 µM. COC(=O)[C@H](CCCNC(=N)N)NC(=O)[C@H](CCCNC(=N)N)NC(=O)C(=O)c1cc(Br)ccc1NC(=O)c1ccc2ccccc2c1.Cl.Cl [Compound 66, dihydrochloride]
Response given: 69

Challenge: Look at this molecule and give its reported inhibition at 250 µM. Cl.N=C(N)NCCCNC(=O)C(=O)c1cc(Cl)ccc1NC(=O)c1ccc2ccccc2c1 [Compound 36, hydrochloride]
Response given: 71

New cases:
Challenge: Report inhibition at 250 µM for Cl.N=C(N)NCCCC[C@H](NC(=O)C(=O)c1cc(Br)ccc1NC(=O)c1ccc2ccccc2c1)C(=O)O [Compound 52, hydrochloride] please.
Response given: 72

* * *

Test system: S. aureus
Assay: Minimal inhibitory concentration (MIC) determination, Example 1
Assay type: cell-based
Conditions: Staphylococcus aureus; MHB, 37° C., 24 h; read-out: Minimum inhibitory concentration (MIC) S. aureus
PROPERTY LABEL: MIC (µg/mL)
Return type: number; implicit unit µg/mL.

Take a look at these entries with their results.
Challenge: For "Cl.N=C(N)NCCCNC(=O)C(=O)c1cc(Cl)ccc1NC(=O)c1ccc2ccccc2c1" , what is its reported MIC?
Response given: 8

Challenge: What value of measured MIC is listed for COC(=O)C(CCCN)NC(=O)C(CCCCN)NC(=O)C(=O)c1cc(Br)ccc1NC(=O)c1ccc2ccccc2c1.Cl.Cl (stereo not shown) ?
Response given: 23

Challenge: Entry "Cc1ccc(NC(=O)c2ccc3ccccc3c2)c(C(=O)C(=O)N[C@@H](CCCCNC(=N)N)C(=O)O)c1.Cl" has what MIC?
Response given: 54

Attention now shifts to the item below.
Challenge: Which MIC value belongs to "Cl.N=C(N)NCCCNC(=O)C(=O)c1cc(F)ccc1NC(=O)c1ccc2ccccc2c1" ?
Response given: 30
